Species: Rattus norvegicus
Assay: Open TG-GATES - Regimen: Daily Repeat
Type: toxicity, organism-based, Sprague-Dawley
Design: regimen Daily Repeat, gender Male, age 6 weeks
Details: in vivo, po, 1000 mg/kg, 72 h, tissue Blood, route gavage, dose level High, time 3 day
Reported MCV values for a set of molecules
Report field: quantity (unit follows the number).

Known MCV results, listed for orientation:
CCOC(=O)CCC(=O)O[C@H]1[C@H](O[C@@H]2[C@@H](C)[C@H](O[C@H]3C[C@@](C)(OC)[C@@H](O)[C@H](C)O3)[C@@H](C)C(=O)O[C@H](CC)[C@@](C)(O)[C@H](O)[C@@H](C)C(=O)[C@H](C)C[C@@]2(C)O)O[C@H](C)C[C@@H]1N(C)C [ERYTHROMYCIN ETHYLSUCCINATE]: 61.6 fL
COC1=CC(=O)C[C@@H](C)[C@]12Oc1c(Cl)c(OC)cc(OC)c1C2=O: 62.6 fL

Name the recorded MCV for COc1ccc2[nH]c([S+]([O-])Cc3ncc(C)c(OC)c3C)nc2c1 (stereo not given) . 59.9 fL

Name the recorded MCV for NC(N)=Nc1nc(CSCCC(N)=NS(N)(=O)=O)cs1 . 60.8 fL

Name the recorded MCV for CCOc1ccc(NC(=O)CC(C)O)cc1 (stereo not given) . 61.9 fL

----------
Organism: Rattus norvegicus
Test: Open TG-GATES - Regimen: Single
Assay type: toxicity, organism-based, Sprague-Dawley
Design: regimen Single, gender Male, age 6 weeks
Conditions: in vivo, po, 0 mg/kg, 3 h, tissue Plasma, route gavage, dose level Control
Classify by measured A/G: criterion met if it is equal to or exceeds 1, criterion not met if it is smaller.

Consider the worked cases shown below.
CCOC(=O)CCC(=O)O[C@H]1[C@H](O[C@@H]2[C@@H](C)[C@H](O[C@H]3C[C@@](C)(OC)[C@@H](O)[C@H](C)O3)[C@@H](C)C(=O)O[C@H](CC)[C@@](C)(O)[C@H](O)[C@@H](C)C(=O)[C@H](C)C[C@@]2(C)O)O[C@H](C)C[C@@H]1N(C)C [ERYTHROMYCIN ETHYLSUCCINATE]: criterion met
CCOc1ccc(NC(=O)CC(C)O)cc1 (centres undefined): criterion not met
CN(C)CCN(Cc1cccs1)c1ccccn1: criterion met
COC1=CC(=O)C[C@@H](C)[C@]12Oc1c(Cl)c(OC)cc(OC)c1C2=O: criterion met
NC(N)=Nc1nc(CSCCC(N)=NS(N)(=O)=O)cs1: criterion met
Cc1ccc(C)c(OCCCC(C)(C)C(=O)O)c1: criterion not met

In plain terms: is recorded A/G at least 1 for CC1=C(/C=C/C(C)=C/C=C/C(C)=C/CO)C(C)(C)CCC1 ? criterion met

In plain terms: is recorded A/G at least 1 for CCCNC(=O)NS(=O)(=O)c1ccc(Cl)cc1 [CHLORPROPAMIDE] ? criterion not met

In plain terms: is recorded A/G at least 1 for NNC(=O)c1ccncc1 ? criterion met

----------
Reported gamma-GTP values for a set of compounds
Species on record: Rattus norvegicus
Experiment: Open TG-GATES - Regimen: Single
Assay type: toxicity, organism-based, Sprague-Dawley
Parameters: regimen Single, gender Male, age 6 weeks
Details: in vivo, po, 30 mg/kg, 6 h, tissue Plasma, route gavage, dose level Middle
The response must be a number in IU/L with no trailing unit.

Known gamma-GTP results, listed for orientation:
CC1=C(/C=C/C(C)=C/C=C/C(C)=C/CO)C(C)(C)CCC1: 1
CN(C)CCN(Cc1cccs1)c1ccccn1: 1
CN(C)CCCN1c2ccccc2CCc2ccccc21: 1.4

Consider now this further compound.
Name the recorded gamma-GTP for CN(C)CCCN1c2ccccc2CCc2ccc(Cl)cc21 . 1.2
